- study_system: Acyl-homoserine lactone acylase PvdQ (Pseudomonas aeruginosa (strain LESB58))
- test: P. aeruginosa PvdQ acylase inhibitors, dose response, biochemical, fluorescence, plate reader and imaging, cherry-picks (AID 493231)
Calls of active or inactive are those of the source.
Possible outcomes: 1.0 for active, 0.0 for inactive

mol=COc1ccc(-c2cc(=O)c3ccccc3s2)cc1 group=0.0
mol=O=C1C=C(c2cc(F)ccc2F)C[C@@H](c2ccc(F)cc2)C1 group=1.0
mol=O=S1(=O)CCOC[C@H](c2ccccc2)N1Cc1cccc(Cl)c1 group=1.0
mol=O=C1/C(=C/c2ccc([N+](=O)[O-])cc2)Oc2cc(O)ccc21 group=1.0
mol=Brc1ccc(-c2nnc(-c3ccco3)o2)cc1 group=1.0

----------
Documented EC50 across a set of molecules
- test: inhibitors of firefly luciferase expression or activity, dose response, H4 neuroglioma cells, luminescence (AID 1990)
- Type: functional, cell-based
Active and inactive are the calls of the source.
measured_property: EC50

mol=CC(C)(C)c1ccc(CSc2cnn(C(C)(C)C)c(=O)c2Cl)cc1 measured_property=EC50 reported="> 120 µM (not active)"
mol=O=C(CCCN1C(=O)/C(=C/c2ccccc2Cl)SC1=S)NNC(=O)c1ccccc1Cl measured_property=EC50 reported="5.95 µM (active)"
mol=COc1ccc(NC(=O)CN2C(=O)COc3ccc(S(=O)(=O)N4CCCCCC4)cc32)cc1 measured_property=EC50 reported="> 120 µM (not active)"
mol=CCn1c(SCc2cc(O)nc3ccccc23)nnc1C1CC1 measured_property=EC50 reported="> 120 µM (not active)"
mol=Cc1cc(NC(=O)CSc2nc3ccccc3[nH]2)n(-c2ccccc2)n1 measured_property=EC50 reported="> 120 µM (not active)"

----------
- test: NIH-3T3 fibroblast cytotoxicity, dose response, cytotoxicity control, cell-based, fluorescence, Alamar Blue, secondary assay (AID 2327);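 also: NIH-3T3 mouse fibroblasts cultured with fluconazole at 8 µg/mL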
- Format: functional
Calls of active or inactive are those of the source.
Below is a list of entries, each paired with its recorded EC50 value.
measured_property: EC50

molecule=Cc1ccc(N/N=C2\COC(C)(C)CC2=O)cc1 reported="> 160 µM (inactive)"
molecule="Cc1ccc(C2C3=C(CC(C)(C)CC3=O)N=C3c4ccccc4C(=O)C32)cc1 (stereo unspecified)" reported="24 µM (active)"
molecule=CC(=O)Nc1cccc(-c2csc(Nc3ccc(C)cn3)n2)c1 reported="25.8 µM (active)"
molecule="COc1cccc(C(C(=O)NC2CCCC2)N(C(=O)c2ccco2)c2ccc(-n3cnnn3)c(C)c2)c1OC (stereo unspecified)" reported="> 150 µM (inconclusive)"
molecule=CC(=O)Nc1ccc(NC(=O)CSc2ccc3nnc(CCNS(=O)(=O)c4ccc(C)cc4)n3n2)cc1 reported="> 160 µM (inactive)"
molecule="COc1cccc(C2C(C(=O)c3ccc(C)cc3)=C(O)C(=O)N2Cc2ccco2)c1 (stereo unspecified)" reported="> 160 µM (inconclusive)"

----------
- study_system: Polyadenylate-binding protein 1 (Homo sapiens, UniProt P11940)
- Sequence (P11940 whole entry): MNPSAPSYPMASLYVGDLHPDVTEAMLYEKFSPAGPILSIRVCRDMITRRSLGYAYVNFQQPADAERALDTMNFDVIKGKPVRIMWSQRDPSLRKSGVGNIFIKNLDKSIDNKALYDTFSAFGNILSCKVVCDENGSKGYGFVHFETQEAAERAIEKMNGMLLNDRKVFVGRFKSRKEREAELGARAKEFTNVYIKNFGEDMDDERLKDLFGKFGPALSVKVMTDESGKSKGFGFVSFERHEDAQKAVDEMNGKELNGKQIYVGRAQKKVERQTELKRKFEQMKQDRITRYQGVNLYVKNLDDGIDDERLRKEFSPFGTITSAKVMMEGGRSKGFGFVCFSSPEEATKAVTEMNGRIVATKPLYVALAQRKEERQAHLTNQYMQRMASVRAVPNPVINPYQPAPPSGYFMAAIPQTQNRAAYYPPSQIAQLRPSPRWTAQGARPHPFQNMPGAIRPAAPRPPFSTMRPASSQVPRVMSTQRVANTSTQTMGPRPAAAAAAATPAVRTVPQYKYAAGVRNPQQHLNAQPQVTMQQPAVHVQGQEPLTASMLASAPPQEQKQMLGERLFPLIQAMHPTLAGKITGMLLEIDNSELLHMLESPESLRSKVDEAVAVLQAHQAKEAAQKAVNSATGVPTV
- test: PABP1 MLLE–PAM2 binding inhibitor potency, dose response, biochemical, fluorescence polarization, FITC-PAM2 peptide (AID 602259)
- Assay type: functional
- experimental_parameters: read-out: IC50_Mean
Calls of active or inactive are those of the source.
measured_property: IC50

mol=Cc1ccccc1-c1nc(S(=O)(=O)c2ccccc2)c(N2CCCC2)o1 reported="> 66 µM (inactive)"
mol=Nc1nc2ccc(S(=O)(=O)N3CCCCC3)cc2s1 reported="> 66 µM (inactive)"
mol=O=[N+]([O-])c1ccc(S(=O)(=O)Nc2ccc3c(c2)OCCO3)cc1 reported="> 66 µM (inactive)"
mol=Cc1cc2ncn(-c3ncccc3[N+](=O)[O-])c2cc1C reported="> 66 µM (inactive)"
mol=C/C(=N\NC(=S)NCCc1ccccc1)c1ccc(O)cc1O reported="> 66 µM (inactive)"
mol=COc1cc(/C=C/C(=O)Nc2nnc(CC(C)(C)C)s2)cc(OC)c1OC reported="> 66 µM (inactive)"
mol=Cc1cc2cc(CNC(=O)c3ccc(S(=O)(=O)N(C)C)cc3)ccc2n1C reported="> 66 µM (inactive)"
mol=O=C(NC(=S)Nc1cccc(Cl)c1N1CCOCC1)c1cccs1 reported="> 66 µM (inactive)"

----------
- study_system: UniProtKB P00734
- test: Thrombin 1536 HTS Dose Response Confirmation. [Related pubchem assays: 1046 (Thrombin 1536 HTS; hits were confirmed in this assay)]
- Format: functional
The source made the active and inactive calls.
measured_property: IC50

mol=COc1cccc(CN(C)C(=O)CCc2nnc(-c3ccsc3)o2)c1 reported="> 50 µM (not active)"
mol=Cc1ccc(-n2c(C)cc(C(=O)CSc3nncs3)c2C)cc1 reported="> 50 µM (not active)"
mol=O=C(Nc1nc2cc3c(cc2s1)OCO3)c1ccco1 reported="9.57 µM (active)"
mol=COCC(=O)n1nc(-c2ccccc2)nc1NCc1ccccc1 reported="0.246 µM (active)"

----------
Listed below: EC50 values for each entry.
- study_system: Heat shock factor protein 1 (Mus musculus, UniProt P38532)
- Sequence (P38532 whole entry): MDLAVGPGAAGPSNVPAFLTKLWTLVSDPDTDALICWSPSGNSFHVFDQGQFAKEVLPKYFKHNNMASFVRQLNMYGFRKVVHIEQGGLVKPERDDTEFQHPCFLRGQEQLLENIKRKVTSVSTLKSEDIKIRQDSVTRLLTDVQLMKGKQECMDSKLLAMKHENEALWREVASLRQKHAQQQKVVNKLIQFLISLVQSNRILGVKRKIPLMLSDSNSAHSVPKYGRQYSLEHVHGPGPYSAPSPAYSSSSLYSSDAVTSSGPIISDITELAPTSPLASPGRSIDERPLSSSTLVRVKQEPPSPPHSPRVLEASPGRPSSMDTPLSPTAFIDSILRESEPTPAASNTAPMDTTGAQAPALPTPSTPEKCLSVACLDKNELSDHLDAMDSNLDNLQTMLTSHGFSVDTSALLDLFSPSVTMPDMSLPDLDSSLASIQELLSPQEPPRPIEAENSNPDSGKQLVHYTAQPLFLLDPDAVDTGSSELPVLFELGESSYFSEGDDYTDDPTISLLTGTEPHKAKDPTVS
- test: HSF1 potentiators in luciferase reporter cells, confirmation, cell-based, NIH3T3, luminescence, dose retest (AID 435004);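 also: stress induced by proteasome inhibitor MG132 added 30 min after compound; luciferase reporter driven by HSF1 response element in NIH3T3 cells; actives raise luminescence as potentiators of the MG132 stress response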
- Assay type: functional
The source made the active and inactive calls.
measured_property: EC50

compound="Cc1ccc(N2C(=O)C3CC(c4ccccc4)=C4C5C=CC(C6C(=O)N(c7ccc(C)cc7C)C(=O)C56)C4C3C2=O)c(C)c1 (centres undefined)" measured_property=EC50 reported="> 260 µM (inactive)"
compound=O=C1/C(=C/c2ccc([N+](=O)[O-])cc2)Oc2cc(O)ccc21 measured_property=EC50 reported="175 µM (active)"
compound=C/C(=N\NC(=O)c1ccoc1C)c1cccc2ccccc12 measured_property=EC50 reported="> 260 µM (inactive)"
compound=CCOC(=O)/C(=C\c1ccc(Cl)cc1)c1nc(O)c2c(C)c(C)sc2n1 measured_property=EC50 reported="> 260 µM (inconclusive)"
compound=Oc1c2c(nc3cc(-c4cccc(F)c4)nn13)CCC2 measured_property=EC50 reported="> 260 µM (inactive)"
compound=Cc1ccc(-c2noc(CCC(=O)Nc3cc(C)ccn3)n2)cc1 measured_property=EC50 reported="> 260 µM (inactive)"
compound=CN(C)c1nc(N)nc(CSc2nnnn2-c2ccc(F)cc2)n1 measured_property=EC50 reported="> 260 µM (inactive)"
compound="CCCC12CN3CC(C)(CN(C1)C3c1ccc3c(c1)OCO3)C2=O (centres undefined)" measured_property=EC50 reported="> 260 µM (inactive)"
compound=O=C(COC(=O)c1ccc2c(c1[N+](=O)[O-])C(=O)c1ccccc1C2=O)NC1CC1 measured_property=EC50 reported="17 µM (active)"
compound=CC(=O)Oc1ccc(-c2cccc(C(=O)OCC(=O)N(C)c3ccccc3)c2)cc1 measured_property=EC50 reported="> 260 µM (inactive)"
compound=CC1(C)CC(=O)C(C2C3=C(CC(C)(C)CC3=O)OC3=C2C(=O)CC(C)(C)C3)=C(O)C1 measured_property=EC50 reported="> 260 µM (inactive)"
compound=O=C(CSc1cc(Cl)ccc1Cl)NCC(=O)Nc1ccc(F)c(F)c1F measured_property=EC50 reported="> 260 µM (inactive)"
compound=CCN(CC)S(=O)(=O)c1cc([N+](=O)[O-])ccc1NNC(=O)Nc1ccccc1OC measured_property=EC50 reported="> 260 µM (inactive)"
compound="Cc1ccccc1N1C(=O)CC(Sc2nnc(-c3ccccc3)o2)C1=O (centres undefined)" measured_property=EC50 reported="57.4 µM (active)"

----------
- study_system: Caspase-3 (Homo sapiens, UniProt P42574);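 also: Dose-response selectivity test against caspase-3 for candidate inhibitors of sentrin-specific proteases (SENPs)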
- Type: functional
The source made the active and inactive calls.
measured_property: IC50

compound=O=C1/C(=C/N(C(=O)c2ccco2)c2ccc(Br)cc2)Sc2ccccc21 reported="16.2 µM (active)"
compound=CC(=O)Nc1cccc(-c2csc(Nc3ccc(C)cn3)n2)c1 reported="39.7 µM (active)"
compound=Oc1nc(Nc2ccccc2)cc2ccccc12 reported="1.02 µM (active)"
compound="CCOC(=O)/C=C(\\C)N1N=C(c2ccccc2)CC1c1ccccc1 (centres undefined)" reported="19.8 µM (active)"

----------
- study_system: Heat shock protein HSP 90-alpha (Homo sapiens, UniProt P07900)
- Format: functional, organism-based
Activity calls are given as the source filed them.
Entries and their AC50
measured_property: AC50

compound="CC(C)(C)c1cc(C(c2cccnc2)N2CCN(CCO)CC2)cc(C(C)(C)C)c1O (configuration not stated)" study_system="Heat shock protein HSP 90-alpha (Homo sapiens, UniProt P07900)" reported="24 µM (active)"
compound=CCn1c(CNc2ccc(Cl)cc2)nnc1SCc1ccc(C)cc1 study_system="Heat shock protein HSP 90-alpha (Homo sapiens, UniProt P07900)" reported="8.07 µM (active)"
compound=CCCCCCCCn1sccc1=O study_system="Heat shock protein HSP 90-alpha (Homo sapiens, UniProt P07900)" reported="0.649 µM (active)"
compound=Cc1ccc(NC(=O)c2ccc(Cl)c(N3C(=O)C=CC3=O)c2)cc1 study_system="Heat shock protein HSP 90-alpha (Homo sapiens, UniProt P07900)" reported="3.64 µM (active)"
compound=CC(C)=CCc1cc([C@@H]2COc3c(ccc4c3C=CC(C)(C)O4)C2)c(O)cc1O study_system="Heat shock protein HSP 90-alpha (Homo sapiens, UniProt P07900)" reported="3.57 µM (active)"
compound=CC(C)(C)SCCNC(=O)c1ccc(Cl)c([N+](=O)[O-])c1 study_system="Heat shock protein HSP 90-alpha (Homo sapiens, UniProt P07900)" reported="2.84 µM (active)"
compound=Cc1cc(-c2cc(-c3ccc(Cl)cc3)nc(N)c2C#N)co1 study_system="Heat shock protein HSP 90-alpha (Homo sapiens, UniProt P07900)" reported="6.87 µM (active)"
